biological target: Activin (UniProt P08476); experiment: SPR
Outcome Measure: Kd (µM)
Enter your answer as a number in µM; do not include the unit.

BMPR-II ECD Y40G (domain or fragment) ASQNQERLCAFKDPGQQDLGIGESRISHENGTILCSKGSTCYGLWEKSKGDINLVKQGCWSHIGDPQECHYEECVVTTTPPSIQNGTYRFCCCSTDLCNVNFTENFPPPDTTPLSPPHSFNRDET: 54
BMPR-II ECD Y40R (domain or fragment) ASQNQERLCAFKDPRQQDLGIGESRISHENGTILCSKGSTCYGLWEKSKGDINLVKQGCWSHIGDPQECHYEECVVTTTPPSIQNGTYRFCCCSTDLCNVNFTENFPPPDTTPLSPPHSFNRDET: 46
BMPR-II ECD G47N (domain or fragment) ASQNQERLCAFKDPYQQDLGINESRISHENGTILCSKGSTCYGLWEKSKGDINLVKQGCWSHIGDPQECHYEECVVTTTPPSIQNGTYRFCCCSTDLCNVNFTENFPPPDTTPLSPPHSFNRDET: 30

Param item = BMPR-II ECD S107P (domain or fragment) ASQNQERLCAFKDPYQQDLGIGESRISHENGTILCSKGSTCYGLWEKSKGDINLVKQGCWSHIGDPQECHYEECVVTTTPPPIQNGTYRFCCCSTDLCNVNFTENFPPPDTTPLSPPHSFNRDET ; retrieve measured Kd.
23

Record request: Kd value, item BMPR-II ECD Y40Q (domain or fragment) ASQNQERLCAFKDPQQQDLGIGESRISHENGTILCSKGSTCYGLWEKSKGDINLVKQGCWSHIGDPQECHYEECVVTTTPPSIQNGTYRFCCCSTDLCNVNFTENFPPPDTTPLSPPHSFNRDET
35
